These data points were gathered from patent US9170257B2.

- protocol.summary: Plasma pharmacokinetics of curcumin and THC during and after intravenous infusion of liposomal curcumin
- Type: in vivo, Beagle dogs
- assay.setup: both sexes, Beagle, dog, in vivo, iv, 10 mg/kg, 8 hr infusion + Phosphate; AUC to 15 min post-infusion; read-out: AUC

| compound | AUC / ng·h/mL |
| --- | --- |
| COc1cc(CCC(=O)CC(=O)CCc2ccc(O)c(OC)c2)ccc1O [THC, tetrahydrocurcumin] | 1170 |

====

- protocol.summary: Tissue distribution of curcumin and THC at necropsy 15 minutes post-infusion
- Set-up: species or system Beagle dogs
- assay.setup: both sexes, beagle, dog, in vivo, 10 mg/kg, Two hour infusion; H3PO4 stabilized; read-out: Average tissue concentration, Brainstem

| molecule | concentration at 15 min / ng/g |
| --- | --- |
| COc1cc(CCC(=O)CC(=O)CCc2ccc(O)c(OC)c2)ccc1O [THC, tetrahydrocurcumin] | 10.6 |

====

- protocol.summary: Tissue distribution of curcumin and THC at necropsy 15 minutes post-infusion
- Set-up: species or system Beagle dogs
- assay.setup: both sexes, beagle, dog, in vivo, 10 mg/kg, 8 hour infusion; Plus H3PO4; read-out: Tissue level, Kidney
measured.parameter: concentration at 15 min (ng/g)

| compound | measured.parameter | units | observed.measurement |
| --- | --- | --- | --- |
| COc1cc(CCC(=O)CC(=O)CCc2ccc(O)c(OC)c2)ccc1O [THC, tetrahydrocurcumin] | concentration at 15 min | ng/g | 2.04 |

====

- protocol.summary: Tissue distribution of curcumin and THC at necropsy 15 minutes post-infusion
- Parameters: species or system Beagle dogs
- assay.setup: both sexes, beagle, dog, in vivo, 10 mg/kg, Kp [tissue]/[plasma], Intestinal Wall, 8 hr infusion; H3PO4 stabilized
- Description: The test article will be administered to 8 Beagle dogs by intravenous infusion over two hours (Part A) or eight hours (Part B) as shown in Table 6. Multiple samples of tissue weighing approximately 1 gram were removed and snap frozen in the presence or absence of phosphoric acid (H3PO4). For all tissue samples, the levels of curcumin and THC were determined using a method developed by the Bioanalytical Department at Nucro-Technics. […]

| compound | Kp at 8 h |
| --- | --- |
| COc1cc(CCC(=O)CC(=O)CCc2ccc(O)c(OC)c2)ccc1O [THC, tetrahydrocurcumin] | 0.002 |

====

- protocol.summary: in vivo
- Assay type: in vivo, Beagle dogs
- assay.setup: both sexes, Beagle, dog, in vivo, iv, 10 mg/kg, Cmax
measured.parameter: Cmax (ng/mL)

| molecule | observed.measurement |
| --- | --- |
| COc1cc(/C=C/C(=O)CC(=O)/C=C/c2ccc(O)c(OC)c2)ccc1O [Curcumin, reference compound] | 15 |

====

- protocol.summary: in vivo
- Parameters: species or system Beagle dogs
- assay.setup: both sexes, beagle, dog, in vivo, Kp [tissue]/[plasma], Liver

| compound | Kp at 2 h |
| --- | --- |
| COc1cc(/C=C/C(=O)CC(=O)/C=C/c2ccc(O)c(OC)c2)ccc1O [Curcumin, reference compound] | 0.0329 |

====

- protocol.summary: Tissue distribution of curcumin and THC at necropsy 15 minutes post-infusion
- Design: species or system Beagle dogs
- assay.setup: both sexes, beagle, dog, in vivo, 10 mg/kg, Eight hour infusion; H3PO4 stabilized; read-out: Average tissue concentration, Brainstem

| compound | concentration at 15 min |
| --- | --- |
| COc1cc(CCC(=O)CC(=O)CCc2ccc(O)c(OC)c2)ccc1O [THC, tetrahydrocurcumin] | 3.02 ng/g |
